MEASUREMENT TARGET: human activated kallikrein enzyme (Homo sapiens, UniProt P03952)
Sequence (P03952 391-638 limits assumed): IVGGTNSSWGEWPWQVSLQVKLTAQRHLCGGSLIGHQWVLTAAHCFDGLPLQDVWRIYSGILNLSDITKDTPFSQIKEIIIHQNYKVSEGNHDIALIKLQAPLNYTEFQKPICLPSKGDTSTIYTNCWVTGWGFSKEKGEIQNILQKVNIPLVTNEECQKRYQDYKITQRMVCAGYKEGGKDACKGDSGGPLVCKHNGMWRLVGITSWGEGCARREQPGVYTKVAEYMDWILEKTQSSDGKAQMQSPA
Sequence (P03952 20-390 partner limits assumed): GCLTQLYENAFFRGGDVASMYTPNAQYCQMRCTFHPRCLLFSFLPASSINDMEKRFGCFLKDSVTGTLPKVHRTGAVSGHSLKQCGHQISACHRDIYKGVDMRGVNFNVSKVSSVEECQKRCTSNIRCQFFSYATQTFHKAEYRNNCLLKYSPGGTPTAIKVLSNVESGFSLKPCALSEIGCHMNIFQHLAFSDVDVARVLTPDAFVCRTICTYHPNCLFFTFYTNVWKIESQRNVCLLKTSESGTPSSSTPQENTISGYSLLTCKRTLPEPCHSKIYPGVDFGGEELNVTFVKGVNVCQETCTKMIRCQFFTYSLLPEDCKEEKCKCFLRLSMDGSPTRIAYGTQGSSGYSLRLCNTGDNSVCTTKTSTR
ASSAY PROCEDURE: Inhibition of human activated plasma kallikrein, fluorogenic PFR-AMC substrate, 500 pM enzyme format
Type: biochemical
COND: 500 pM activated kallikrein; 300 μM PFR-AMC; 30 min preincubation; 10 min room temperature; pH 7.5; read-out: Primary Dose Response Assay: Average EC50
pEC50: −log10 of the molar value.
Assign pEC50 to each entry below.

Some molecules with recorded pEC50:
[
  {
    "MOLECULE": "Cc1cc2c(N)nccc2c(C)c1CNc1cc(OCc2cn3cc(C(F)(F)F)ccc3n2)cnn1 [Example 424]",
    "pEC50": "> 9.00"
  },
  {
    "MOLECULE": "Cc1cc2c(N)nccc2c(C)c1CNc1cc2c(cn1)ncn2Cc1cc2cc(C3CC3)cnc2s1 [Example 504]",
    "pEC50": "> 9.00"
  },
  {
    "MOLECULE": "Cc1cc2c(N)nccc2c(C)c1CNc1nccc2cn(Cc3cn4nc(C5CC5)ccc4n3)nc12 [Example 265]",
    "pEC50": "> 9.00"
  },
  {
    "MOLECULE": "Cc1nnc(Cc2ccc(CNc3cc(NCc4c(C)cc5c(N)nccc5c4C)ncn3)cc2)s1 [Example 343]",
    "pEC50": "< 6.00"
  },
  {
    "MOLECULE": "Cc1cc2c(N)nccc2c(C)c1CNC(=O)c1cnn(Cc2cccc(Cl)c2)c1 [Example 98]",
    "pEC50": "7.00 to 8.00"
  }
]

List the reported pEC50 of each molecule below.
1. Cc1cc2c(N)nccc2c(C)c1CNc1ncnc2c1nc(Cc1ccc3ncc(Cl)cc3c1)n2C [Example 539]
2. Cc1cc2c(N)nccc2c(C)c1CNc1cc(NCc2ccc3ncc(F)cc3c2)ncn1 [Example 334]
3. Cc1cc2c(N)nccc2c(C)c1CNC(=O)c1cnn(Cc2ccc(C(C)C(=O)N(C)C)cc2)c1 (centres unmarked) [Example 119]

Key:
1. 6.00 to 7.00
2. > 9.00
3. > 9.00

----------
MEASUREMENT TARGET: human activated kallikrein enzyme (Homo sapiens, UniProt P03952)
ASSAY PROCEDURE: Inhibition of human activated plasma kallikrein, fluorogenic PFR-AMC substrate, 500 pM enzyme format
Assay type: biochemical
COND: 500 pM activated kallikrein; 300 μM PFR-AMC; 30 min preincubation; 10 min room temperature; pH 7.5; read-out: Primary Dose Response Assay: Average EC50
What EC50 was measured for each of the following?

Some entries whose results are on file:
[
  {
    "COMPOUND": "Cc1cc2c(N)nccc2c(C)c1CNC(=O)c1cnn(Cc2ccc(N3CCCC3)nc2)c1C(F)(F)F",
    "EC50": "100 to 1000 nM"
  },
  {
    "COMPOUND": "Cc1cc2c(N)nccc2c(C)c1CNC(c1cnn(Cc2ccc(Cn3ccccc3=O)cc2)c1)C(F)(F)F (stereo not shown)",
    "EC50": "10 to 100 nM"
  },
  {
    "COMPOUND": "Cc1cc2c(N)nccc2c(C)c1CNc1cc(N(Cc2ccc(Cn3cccn3)cc2C(F)(F)F)N=O)ncn1",
    "EC50": "10 to 100 nM"
  },
  {
    "COMPOUND": "Cc1cc2c(N)nccc2c(C)c1CNc1cc2c(ccn2Cc2ccc3ncc(Cl)cc3c2)cn1 [Example 531]",
    "EC50": "10 to 100 nM"
  },
  {
    "COMPOUND": "Cc1cc2c(N)nccc2c(C)c1CNc1cc(OCc2ccc(Cn3ccc(C4CC4)n3)cc2)cnn1",
    "EC50": "< 1 nM"
  }
]

I'm hoping you can list EC50 for every compound here, please.
1. Cc1cc2c(N)nccc2c(C)c1CNC(=O)c1cnn(Cc2cn3cc(C4CC4)ccc3n2)c1
2. CCOC(=O)C(C)(C)Cc1cc(C2CC2)cc2cc(COc3cc(NCc4c(C)cc5c(N)nccc5c4C)ncn3)nn12

Key:
["< 1 nM", "1 to 10 nM"]
